Molecular target: Human recombinant MMP-2 (Homo sapiens, UniProt P08253)
Construct: made in house; host or cells: MMP-2-transfected p2AHT2 cells
Sequence (P08253 110-660): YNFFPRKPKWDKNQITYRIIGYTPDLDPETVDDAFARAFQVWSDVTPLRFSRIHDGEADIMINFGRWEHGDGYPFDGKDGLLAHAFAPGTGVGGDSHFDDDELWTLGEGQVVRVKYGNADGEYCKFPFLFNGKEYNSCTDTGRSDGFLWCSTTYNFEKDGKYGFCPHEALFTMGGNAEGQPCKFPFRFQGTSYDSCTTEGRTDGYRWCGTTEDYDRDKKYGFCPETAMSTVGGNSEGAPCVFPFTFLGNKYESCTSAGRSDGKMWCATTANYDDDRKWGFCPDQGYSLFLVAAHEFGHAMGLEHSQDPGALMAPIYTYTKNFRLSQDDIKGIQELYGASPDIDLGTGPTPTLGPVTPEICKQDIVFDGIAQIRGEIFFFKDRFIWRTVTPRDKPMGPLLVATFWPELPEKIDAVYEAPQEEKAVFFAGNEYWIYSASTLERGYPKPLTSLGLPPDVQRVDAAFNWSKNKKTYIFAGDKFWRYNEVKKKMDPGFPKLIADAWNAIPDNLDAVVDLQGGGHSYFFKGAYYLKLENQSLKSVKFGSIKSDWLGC
Test: In vitro MMP inhibition, IC50 determination (fluorogenic substrate I)
Format: biochemical
Conditions: substrate (I) 4 μM, room temperature; values not in parenthesis
Procedure: Several hydroxamates and salts thereof were analyzed in in vitro assays to determine their ability to inhibit the MMP cleavage of peptide substrates. Inhibition (Ki) and IC50 constants were calculated from the assayed hydroxamate-MMP interactions. […] The assays from which the IC50 determinations were made were performed as follows. […] The assayed hydroxamate samples were, incubated in Microfluorrm White Plates (Dynatech, Chantilly, VA) and analyzed on a Perkin Elmer L550 plate reader (Norwalk, Conn.). […]
measure: IC50 (nM)

The cases that follow already have their IC50 on record.
Query: Item: O=C1c2ccccc2CN1CCCOc1ccc(S(=O)(=O)C2(C(=O)NO)CCOCC2)cc1 [Example 22] Test system: Human recombinant MMP-2 (Homo sapiens, UniProt P08253) Read-out: IC50 Value: ?
Response: 1000

Query: And what about the compound COCCN1CCC(C(=O)NO)(S(=O)(=O)c2ccc(OCCCn3nnc(-c4ccc(OC(F)(F)F)cc4)n3)cc2)CC1 [Example 48] ?
Response: 105

Query: And what about the compound COc1ccc(C(=O)NCCCOc2ccc(S(=O)(=O)C3(C(=O)NO)CCOCC3)cc2)cc1 [Example 17] ?
Response: 550

1 = O=C(NO)C1(S(=O)(=O)c2ccc(OCCCc3nc4ccccc4o3)cc2)CCOCC1 [Example 37]
2 = COc1ccc(/C(C)=C/CCCOc2ccc(S(=O)(=O)C3(C(=O)NO)CCOCC3)cc2)cc1 [Example 28]
Query: Of the pair 1 and 2 , name the member with the lesser recorded IC50. Reply with the label of the item you choose.
Response: 1

====

Biological target: Human recombinant MMP-2 (Homo sapiens, UniProt P08253)
Construct: made in house; host or cells: MMP-2-transfected p2AHT2 cells
Assay: In vitro MMP inhibition, IC50 determination (fluorogenic substrate I)
Format: biochemical
Details: value outside parentheses
Protocol: Several hydroxamates and salts thereof were analyzed in in vitro assays to determine their ability to inhibit the MMP cleavage of peptide substrates. Inhibition (Ki) and IC50 constants were calculated from the assayed hydroxamate-MMP interactions. […] The assays from which the IC50 determinations were made were performed as follows. […] The assayed hydroxamate samples were, incubated in Microfluorrm White Plates (Dynatech, Chantilly, VA) and analyzed on a Perkin Elmer L550 plate reader (Norwalk, Conn.). […]
measure: IC50 (nM)

The cases that follow already have their IC50 on record.
Query: Item: `COc1ccc(C(=O)CCCOc2ccc(S(=O)(=O)C3(C(=O)NO)CCOCC3)cc2)cc1` Test system: Human recombinant MMP-2 (Homo sapiens, UniProt P08253) Read-out: IC50 Value: ?
Response: 6.8

Query: And what about the compound `O=C(Cc1nnn(Cc2ccccc2)n1)NCCOc1ccc(S(=O)(=O)C2(C(=O)NO)CCOCC2)cc1` ?
Response: 14

Query: And what about the compound `CC(=O)c1cccc(OCCOc2ccc(S(=O)(=O)C3(C(=O)NO)CCOCC3)cc2)c1` ?
Response: 156

Query: And what about the compound `O=C(NO)C1(S(=O)(=O)c2ccc(OCCCc3cccnc3)cc2)CCOCC1` ?
Response: 8.4

Query: And what about the compound `O=C(NO)C1(S(=O)(=O)c2ccc(OCCCc3cccc(-c4ccsc4)c3)cc2)CCOCC1` ?
Response: 91

Query: And what about the compound `O=C(NCCOc1ccc(S(=O)(=O)C2(C(=O)NO)CCOCC2)cc1)c1ccc(-c2cccc(C(F)(F)F)c2)o1` ?
Response: 488

Query: And what about the compound `O=C(CCCOc1ccc(S(=O)(=O)C2(C(=O)NO)CCOCC2)cc1)N1CCc2ccccc21` ?
Response: 48.2

Query: And what about the compound `Cn1c(C(=O)NCCOc2ccc(S(=O)(=O)C3(C(=O)NO)CCOCC3)cc2)cc2ccccc21` ?
Response: 336

I = O=C(NO)C1(S(=O)(=O)c2ccc(OCCCc3cc(-c4ccc(F)cc4)cs3)cc2)CCOCC1
II = O=C(NO)C1(S(=O)(=O)c2ccc(OCCCc3nc(-c4cccnc4)no3)cc2)CCOCC1
III = CCN1CCC(C(=O)NO)(S(=O)(=O)c2ccc(OCCCSc3nc4ccccc4s3)cc2)CC1
Query: Arrange the 3 compounds from largest to smallest IC50. Put the labels in the order asked and list them.
Response: I, II, III
(I: 45.2 nM, II: 20.5 nM, III: 3.5 nM)

1 = O=C(NO)C1(S(=O)(=O)c2ccc(OCCOCc3cccc(OC(F)(F)F)c3)cc2)CCOCC1
2 = O=C(NO)C1(S(=O)(=O)c2ccc(OCCCc3cccc(-c4ccc5ccccc5c4)c3)cc2)CCOCC1
Query: From the recorded data, which exceeds the other in IC50: 1 or 2 ? Reply with the label of the item you choose.
Response: 2

a = O=C(NO)C1(S(=O)(=O)c2ccc(OCCCOCc3cccnc3)cc2)CCOCC1
b = CC(C)(C)c1cccc(NC(=O)CCCOc2ccc(S(=O)(=O)C3(C(=O)NO)CCOCC3)cc2)c1
Query: From the recorded data, which exceeds the other in IC50: a or b ? Reply with the label of the item you choose.
Response: a
(a: 54.2 nM, b: 37.3 nM)

====

Biological target: Human recombinant MMP-9 (Homo sapiens)
Construct: made in house; host or cells: MMP-9-transfected HT1080 cells (spent media)
Sequence (P14780 107-707 limits assumed): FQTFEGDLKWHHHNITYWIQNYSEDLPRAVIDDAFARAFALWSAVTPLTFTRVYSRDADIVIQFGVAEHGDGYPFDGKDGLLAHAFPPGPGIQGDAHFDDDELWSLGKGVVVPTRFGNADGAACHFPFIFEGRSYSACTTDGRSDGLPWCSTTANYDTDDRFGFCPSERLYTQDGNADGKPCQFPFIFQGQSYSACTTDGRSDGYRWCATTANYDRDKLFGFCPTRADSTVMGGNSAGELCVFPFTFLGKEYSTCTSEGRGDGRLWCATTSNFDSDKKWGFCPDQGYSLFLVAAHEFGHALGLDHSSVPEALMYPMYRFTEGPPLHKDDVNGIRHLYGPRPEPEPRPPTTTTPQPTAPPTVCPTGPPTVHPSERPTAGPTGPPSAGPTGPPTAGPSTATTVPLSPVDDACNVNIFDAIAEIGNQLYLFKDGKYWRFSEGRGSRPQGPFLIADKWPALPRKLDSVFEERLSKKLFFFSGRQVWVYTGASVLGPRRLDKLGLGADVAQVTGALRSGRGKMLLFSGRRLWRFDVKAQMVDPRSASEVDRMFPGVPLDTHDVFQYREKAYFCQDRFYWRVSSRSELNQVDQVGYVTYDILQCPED
Assay: In vitro MMP inhibition, IC50 determination (fluorogenic substrate I)
Assay type: biochemical
Settings: value outside parentheses
measure: IC50 (nM)

The cases that follow already have their IC50 on record.
Query: Query (compound): `O=C(NO)C1(S(=O)(=O)c2ccc(OCCCn3nnc(-c4ccc(OC(F)(F)F)cc4)n3)cc2)CCOCC1` ; field requested: IC50
Response: 1180

Query: And what about the compound O=C(NO)C1(S(=O)(=O)c2ccc(OCCCc3cccc(C4CCCCN4)c3)cc2)CCN(C2CC2)CC1 (stereo not shown) ?
Response: 6890

Query: And what about the compound `O=C(NO)C1(S(=O)(=O)c2ccc(OCCOc3cccc(F)c3)cc2)CCOCC1` ?
Response: 39.1

Query: And what about the compound `O=C(NO)C1(S(=O)(=O)c2ccc(OCCCc3cncc(-c4ccccc4)c3)cc2)CCOCC1` ?
Response: 1840

Query: And what about the compound `O=C(NCCOc1ccc(S(=O)(=O)C2(C(=O)NO)CCOCC2)cc1)c1cc2ccccc2[nH]1` ?
Response: 11.6

a = O=C(NO)C1(S(=O)(=O)c2ccc(OCCCc3cccc(-c4ccc(F)cc4F)c3)cc2)CCOCC1
b = O=C(CCOc1ccc(S(=O)(=O)C2(C(=O)NO)CCOCC2)cc1)c1ccccc1
Query: Of the pair a and b , name the member with the lesser recorded IC50. Reply with the label of the item you choose.
Response: b

A = O=C(NO)C1(S(=O)(=O)c2ccc(OCCCc3cccc(-c4ccoc4)c3)cc2)CCOCC1
B = O=C(NO)C1(S(=O)(=O)c2ccc(OCCOCc3cccc([N+](=O)[O-])c3)cc2)CCOCC1
C = O=C(NO)C1(S(=O)(=O)c2ccc(OCCCc3cccc(-c4ccsc4)c3)cc2)CCOCC1
D = COCCN1CCC(C(=O)NO)(S(=O)(=O)c2ccc(OCCCSc3nc4ccccc4s3)cc2)CC1
E = O=C(NO)C1(S(=O)(=O)c2ccc(OCCCSc3nc4ccccc4s3)cc2)CCN(CC2CC2)CC1
Query: Arrange the 5 compounds from largest to smallest IC50. Put the labels in the order asked and list them.
Response: A, C, B, E, D

====

Target: Human recombinant MMP-13 (Homo sapiens, UniProt P45452)
Construct: made in house; host or cells: baculovirus / insect cells
Assay: In vitro MMP inhibition, Ki determination (fluorogenic substrate II)
Assay type: biochemical
Conditions: value in parenthesis
pKi: −log10 of the molar value.
measure: pKi

Query: Query (compound): O=C(CCCOc1ccc(S(=O)(=O)C2(C(=O)NO)CCOCC2)cc1)Nc1ccc(OC(F)(F)F)cc1 [Example 250] ; field requested: pKi
Response: 9.90

Query: And what about the compound `Cc1ccccc1-c1cccc(CCCOc2ccc(S(=O)(=O)C3(C(=O)NO)CCOCC3)cc2)c1` ?
Response: 8.16

Query: And what about the compound `O=C(NO)C1(S(=O)(=O)c2ccc(OCCc3cccc(-c4ccc(Cl)cc4Cl)c3)cc2)CCOCC1` ?
Response: 7.70

Query: And what about the compound `Cc1ccc(-c2cccc(CCOc3ccc(S(=O)(=O)C4(C(=O)NO)CCOCC4)cc3)c2)cc1` ?
Response: 7.79

Query: And what about the compound `Cc1ccccc1-c1cccc(CCOc2ccc(S(=O)(=O)C3(C(=O)NO)CCOCC3)cc2)c1` ?
Response: 8.29

A = COc1ccc(-c2cccc(CCOc3ccc(S(=O)(=O)C4(C(=O)NO)CCOCC4)cc3)c2)cc1C
B = COCCN1CCC(C(=O)NO)(S(=O)(=O)c2ccc(OCCCc3nc(-c4ccc(CC(C)C)cc4)no3)cc2)CC1
Query: Of the pair A and B , name the member with the lesser recorded pKi. Reply with the label of the item you choose.
Response: A
